# Tested on: VIOTR: wild violet (Viola tricolor)
# METHOD_SUMMARY: Post-emergent herbicidal test, wild violet
# Type: in vivo
# RUN_PARAMETERS: post-emergence, 336 h, 70 g ai/ha, 14 days after application, read-out: Visual Growth Reduction (%) 14 Days After Application VIOTR
MEASURED_PROPERTY: pest or weed control at 70 g/ha (%)
Could you give me the number in %? Just the number is fine.

Here's what some known entries look like.
Nc1c(F)c(-c2ccc(Br)c3c2OC(F)(F)O3)nc(C(=O)O)c1Cl : 0
COC(=O)c1nc(-c2ccc(F)c3c2OCO3)c(F)c(N)c1Cl : 70
Nc1c(F)c(-c2ccc(F)c3c2OC(F)(F)O3)nc(C(=O)O)c1Cl : 15
COC(=O)c1nc(-c2cccc3c2OC(F)(F)O3)c(F)c(N)c1Cl : 20
COC(=O)c1nc(-c2ccc(Cl)c3c2OCO3)c(F)c(N)c1Cl : 75

Request: Specify reported pest or weed control at 70 g/ha for the compound shown: Nc1c(F)c(-c2cccc3c2OCO3)nc(C(=O)O)c1Cl
Response: 30

Request: Specify reported pest or weed control at 70 g/ha for the compound shown: COC(=O)c1nc(-c2ccc(Cl)c3c2OC(F)(F)O3)c(Cl)c(N)c1Cl
Response: 0

Request: Specify reported pest or weed control at 70 g/ha for the compound shown: COC(=O)c1nc(-c2ccc(I)c3c2OC(F)(F)O3)c(F)c(N)c1Cl
Response: 0

Request: Specify reported pest or weed control at 70 g/ha for the compound shown: Nc1c(F)c(-c2cccc3c2OC(F)(F)O3)nc(C(=O)O)c1Cl
Response: 10
